Km listing for selected compounds.
# procedure.summary: Substrate activity at hexa-his tagged Helicobacter pylori XGHPRT assessed as apparent Km using purine base and PRib-PP as substrate measured for 60 sec by spectrophotometric method
# Assay type: ADME
# condition.notes: 1 min, read-out: Km(app)
measured.endpoint: Km

> print(dat)
                                   compound  measured.endpoint  value.measured
1  Sc1ncnc2nc[nH]c12 [MERCAPTOPURINE ANHYDROUS]                 Km           41 µM
2    Nc1nc2nc[nH]c2c(=S)[nH]1 [THIOGUANINE]                 Km          3.3 µM
3              O=c1[nH]c(=S)c2[nH]cnc2[nH]1                 Km           32 µM

Ref: ChEMBL document CHEMBL4825670
